System: HCoV 229E
Conditions: BEAS2B cell
measuredProperty: SI (CC50/EC50) HCoV229E

{"structure": "CC(C)[C@H](NC(=O)OC(C)(C)C)C(=O)N1C[C@H](OC(C)(C)C)C[C@H]1C(=O)N[C@H](C=O)C[C@@H]1CCNC1=O", "measuredProperty": "SI (CC50/EC50) HCoV229E", "reported": "< 10"}
{"structure": "CC(C)C[C@H](NC(=O)[C@@H](NC(=O)OC(C)(C)C)C(C)C)C(=O)N[C@H](C=O)C[C@@H]1CCNC1=O", "measuredProperty": "SI (CC50/EC50) HCoV229E", "reported": "> 30.1"}
{"structure": "CC(C)[C@H](NC(=O)OC(C)(C)C)C(=O)N1CCC[C@H]1C(=O)N[C@H](C=O)C[C@@H]1CCNC1=O", "measuredProperty": "SI (CC50/EC50) HCoV229E", "reported": "< 10"}
{"structure": "CO[C@H]1C[C@@H](C(=O)N[C@H](C=O)C[C@@H]2CCNC2=O)N(C(=O)[C@@H](NC(=O)OC(C)(C)C)C(C)C)C1", "measuredProperty": "SI (CC50/EC50) HCoV229E", "reported": "< 10"}
